- Tested on: HEK-293T
- experimental_protocol: Multiplex assay against HEK293T
- Format: toxicity, cell-based
- experimental_conditions: human, 12 h, 1 µM, compound concentration 1 uM, replicate 1
Property: Population Pyknosed Nuclei (%); scope: individual molecules
measured_endpoint: Population Pyknosed Nuclei (%)

• C[C@@H](Oc1cc(-n2cnc3ccc(CN4CCN(C)CC4)cc32)sc1C(N)=O)c1ccccc1C(F)(F)F = 65
• Cl.NC[C@@H]1O[C@H](C23CC4CC(CC(C4)C2)C3)Cc2c1ccc(O)c2O = 40
• N#Cc1cccc(C(=O)Nc2cc(-c3ccccc3)nn2-c2ccccc2)c1 = 49
• N#CCNC(=O)c1ccc(-c2ccnc(Nc3ccc(N4CCOCC4)cc3)n2)cc1 = 38
• CCCc1cc(C)[nH]c(=O)c1CNC(=O)c1cc(-c2ccc(N3CCN(C(C)C)CC3)nc2)cc2c1cnn2C(C)C = 60
• Cl.Cn1c2c(c3ccc(Cl)c(Cl)c31)C(C#N)C1(CCNCC1)NC2=O (centres undefined) = 19
• Cc1c(P(=S)(c2ccccc2)c2ccccc2)n2ccccc2[n+]1C/C=C/c1ccccc1.[Br-] = 62
• CC(C)c1cc(Nc2nc(N3CCC[C@H](N)C3)ncc2C(N)=O)cc(C(C)C)n1 = 60
• CCCCN(CC)c1nc(C)nc2c1c(C)cn2-c1c(C)cc(C)cc1C.Cl = 39
• CC(C)[C@H](CO)Nc1nc(Nc2cccc(Cl)c2)c2ncn(C(C)C)c2n1 = 54
• CC[C@H](Nc1ncnc2[nH]cnc12)c1nc2cccc(F)c2c(=O)n1-c1ccccc1 = 34
• CCOC(=O)CCNc1cc(N2CCc3ccccc3CC2)nc(-c2ccccn2)n1 = 17
• CC[C@@H]1C(=O)N(C)c2cnc(Nc3ccc(C(=O)NC4CCN(C)CC4)cc3OC)nc2N1C1CCCC1 = 22
• Cc1ccc(S(=O)(=O)NC2c3ccccc3Oc3ccccc32)cc1 = 44
• CCOc1ccn(-c2ccc(F)cc2)c(=O)c1C(=O)Nc1ccc(Oc2ccnc(N)c2Cl)c(F)c1 = 17
• CN(c1cc(C(F)(F)F)nc(OCCC(=O)O)n1)c1cccc2c1CCC2 = 44
• CC(/C=C1\SC(=S)N(CCCC(=O)Nc2ccc(C(=O)O)c(O)c2)C1=O)=C\c1ccccc1 = 53
• Cc1c(Nc2ccc(S(=O)(=O)N3CCN(C)CC3)cc2F)nc2ccc(-c3cnn(C4CC4)c3)cn2c1=O = 18
• CCCCCNC(=N)N/N=C/c1c[nH]c2ccc(OC)cc12.O=C(O)/C=C\C(=O)O [TEGASEROD MALEATE] = 36

###

Let's look at some compounds and their measured Population Hoechst High Intensity Objects (%).
- Tested on: U2OS
- experimental_protocol: Multiplex assay against U2OS
- Format: toxicity, cell-based
- experimental_conditions: human, 12 h, 10 µM, compound concentration 10 uM, replicate 2
measured_endpoint: Population Hoechst High Intensity Objects (%)

- N#CCNC(=O)c1ccc(-c2ccnc(Nc3ccc(N4CCOCC4)cc3)n2)cc1: 10%
- Cc1ccc(S(=O)(=O)NC2c3ccccc3Oc3ccccc32)cc1: 6%
- CC(/C=C1\SC(=S)N(CCCC(=O)Nc2ccc(C(=O)O)c(O)c2)C1=O)=C\c1ccccc1: 7%
- Cc1c(P(=S)(c2ccccc2)c2ccccc2)n2ccccc2[n+]1C/C=C/c1ccccc1.[Br-]: 8%
- C=CC(=O)Nc1cc(-n2c(=O)ccc3cnc4ccc(-c5ccc(NS(C)(=O)=O)cc5)cc4c32)ccc1C: 9%
- CC(Cc1ccc(O)c(O)c1)C(C)Cc1ccc(O)c(O)c1 (centres undefined) [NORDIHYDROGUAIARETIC ACID]: 6%
- Cl.NC[C@@H]1O[C@H](C23CC4CC(CC(C4)C2)C3)Cc2c1ccc(O)c2O: 10%
- c1ccc(-c2oc3ncnc(NC[C@@H]4CCCO4)c3c2-c2ccccc2)cc1: 6%
- CCCCCNC(=N)N/N=C/c1c[nH]c2ccc(OC)cc12.O=C(O)/C=C\C(=O)O [TEGASEROD MALEATE]: 35%
